System: collagenase (MMP-1)
procedure-summary: IL-1β-induced collagenase (MMP-1) production by dermal fibroblasts, ELISA
Format: cell-based, human
particulars: IL1β (100 pg/mL) + peptide 10 μg/mL, added 2 hours before IL-1β, 48 hrs; IL1β + PBS 1351, PBS + PBS 556
value-type: Collagenase (ng/mL)

>  <substance>
RPSGRKSSKMQAFRI (IL-1ra peptides) [SEQ ID NO: 19]

>  <value-type>
Collagenase

>  <observed-result>
1267

$$$$
>  <substance>
FYLRNNQLVAGYLQG (IL-1ra peptides) [SEQ ID NO: 21]

>  <value-type>
Collagenase

>  <observed-result>
2581

$$$$
>  <substance>
MQAFRIWDVNQKTFYLR (IL-1ra peptides) [SEQ ID NO: 20]

>  <value-type>
Collagenase

>  <observed-result>
2036

$$$$
>  <substance>
NNQLVAGY (IL-1ra peptides) [SEQ ID NO: 23]

>  <value-type>
Collagenase

>  <observed-result>
1078

$$$$
>  <substance>
LVAGYLQG (IL-1ra peptides) [SEQ ID NO: 24]

>  <value-type>
Collagenase

>  <observed-result>
749

$$$$
>  <substance>
FYLRNNQ (IL-1ra peptides) [SEQ ID NO: 22]

>  <value-type>
Collagenase

>  <observed-result>
1881

$$$$

----------
Below, each entry is listed alongside its reported Collagenase.
Tested on: collagenase (MMP-1)
procedure-summary: IL-1β-induced collagenase (MMP-1) production by dermal fibroblasts, ELISA
Type: cell-based, human
particulars: IL1β (100 pg/mL) + peptide 1 μg/mL, added 2 hours before IL-1β, 48 hrs; IL1β + PBS 1351, PBS + PBS 556

>  <substance>
FYLRNNQ (IL-1ra peptides) [SEQ ID NO: 22]

>  <Collagenase / ng/mL>
1827

$$$$
>  <substance>
MQAFRIWDVNQKTFYLR (IL-1ra peptides) [SEQ ID NO: 20]

>  <Collagenase / ng/mL>
2139

$$$$
>  <substance>
LVAGYLQG (IL-1ra peptides) [SEQ ID NO: 24]

>  <Collagenase / ng/mL>
841

$$$$
>  <substance>
FYLRNNQLVAGYLQG (IL-1ra peptides) [SEQ ID NO: 21]

>  <Collagenase / ng/mL>
2361

$$$$
>  <substance>
NNQLVAGY (IL-1ra peptides) [SEQ ID NO: 23]

>  <Collagenase / ng/mL>
619

$$$$
>  <substance>
RPSGRKSSKMQAFRI (IL-1ra peptides) [SEQ ID NO: 19]

>  <Collagenase / ng/mL>
1152

$$$$
